targetOfAssay: T1, cIL2Rg-Fc (lot#P210115SV5) (cynomolgus, UniProt A0A2K5VGJ6 23-262)
T1 construct: Named only by lot number; also called cynomolgus IL2Rg-Fc; not shown: Fc of the fusion protein
T1 sequence: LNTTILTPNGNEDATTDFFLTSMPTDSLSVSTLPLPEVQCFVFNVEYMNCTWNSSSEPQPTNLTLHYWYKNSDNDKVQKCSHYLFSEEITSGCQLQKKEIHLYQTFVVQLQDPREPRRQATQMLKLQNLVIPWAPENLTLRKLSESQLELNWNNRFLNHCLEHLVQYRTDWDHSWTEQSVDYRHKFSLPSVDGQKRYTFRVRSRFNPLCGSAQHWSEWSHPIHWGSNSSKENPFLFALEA
testName: SPR (Biacore T200), Fc-fused ligand captured on chip, dual VHH as analyte, 1:1 Langmuir fit
measuredEndpoint: koff (s⁻¹)
Record the value in s⁻¹, omitting the unit from your answer.

Please report the recorded koff for DR442(DR236-DR232) (bispecific antibody, Anti-hIL10Ra/hIL2Rg dual VHH with ASH6 handle; also called F7) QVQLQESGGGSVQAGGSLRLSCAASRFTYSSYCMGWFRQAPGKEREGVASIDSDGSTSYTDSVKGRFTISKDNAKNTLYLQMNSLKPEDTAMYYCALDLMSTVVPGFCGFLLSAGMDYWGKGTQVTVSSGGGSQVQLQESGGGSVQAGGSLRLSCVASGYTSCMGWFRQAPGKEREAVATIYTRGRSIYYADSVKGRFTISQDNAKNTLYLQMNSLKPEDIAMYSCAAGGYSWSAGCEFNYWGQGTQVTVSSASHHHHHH .
0.0033
